For each entry below, report its Kd value.
- assay-target: T1, Csm2;Psy3 (Saccharomyces cerevisiae?;Saccharomyces …, UniProt P40465;Q12318 1-213;1-242, |)
- T1 sequence 1: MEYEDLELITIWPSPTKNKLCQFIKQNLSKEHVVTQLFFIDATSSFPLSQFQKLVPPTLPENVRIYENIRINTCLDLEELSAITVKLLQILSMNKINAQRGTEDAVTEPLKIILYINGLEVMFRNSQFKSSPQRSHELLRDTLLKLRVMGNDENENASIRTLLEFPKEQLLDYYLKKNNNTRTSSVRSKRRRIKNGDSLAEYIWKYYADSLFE
- T1 sequence 2: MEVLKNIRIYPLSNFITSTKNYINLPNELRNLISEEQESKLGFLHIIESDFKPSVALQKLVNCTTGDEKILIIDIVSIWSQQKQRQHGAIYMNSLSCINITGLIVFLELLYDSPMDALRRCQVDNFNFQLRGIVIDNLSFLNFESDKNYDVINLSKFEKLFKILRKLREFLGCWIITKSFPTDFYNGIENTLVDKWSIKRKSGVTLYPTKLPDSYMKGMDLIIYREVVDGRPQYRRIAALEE
- procedure-summary: fluorescence polarization
Give bare numbers, in µM.

// below: answered binders
# input Requested field: Kd. Item: Fork (20nt) (dsDNA) DNA 1: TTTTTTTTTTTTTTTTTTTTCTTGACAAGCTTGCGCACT DNA 2: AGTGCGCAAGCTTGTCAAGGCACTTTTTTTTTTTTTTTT
# output 0.74

# input Find the recorded Kd belonging to 5'-overhang (20nt) (dsDNA) DNA 1: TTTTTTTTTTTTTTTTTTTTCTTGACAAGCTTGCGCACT DNA 2: AGTGCGCAAGCTTGTCAAG and report it.
# output 0.43

# input Look up Kd: ds39 (dsDNA) DNA 1: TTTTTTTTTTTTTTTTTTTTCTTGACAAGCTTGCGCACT DNA 2: AGTGCGCAAGCTTGTCAAGAAAAAAAAAAAAAAAAAAAA
# output 1.54

# input What value of Kd has been recorded for this entry: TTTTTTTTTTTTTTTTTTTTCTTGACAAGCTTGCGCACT (ssDNA) [ss39]
# output 1.49

Continuing:
# input Endpoint output: Kd of 3'-overhang (20nt) (dsDNA) DNA 1: CTTGACAAGCTTGCGCACT DNA 2: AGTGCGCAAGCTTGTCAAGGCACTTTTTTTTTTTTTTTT . Value?
# output 1.6
